target: ERα (Homo sapiens); assay: Degradation of ERα in MCF-7 cells (immunoblotting, 4 h); format: cell-based; conditions: 10nM compound
Sequence (P03372 whole entry): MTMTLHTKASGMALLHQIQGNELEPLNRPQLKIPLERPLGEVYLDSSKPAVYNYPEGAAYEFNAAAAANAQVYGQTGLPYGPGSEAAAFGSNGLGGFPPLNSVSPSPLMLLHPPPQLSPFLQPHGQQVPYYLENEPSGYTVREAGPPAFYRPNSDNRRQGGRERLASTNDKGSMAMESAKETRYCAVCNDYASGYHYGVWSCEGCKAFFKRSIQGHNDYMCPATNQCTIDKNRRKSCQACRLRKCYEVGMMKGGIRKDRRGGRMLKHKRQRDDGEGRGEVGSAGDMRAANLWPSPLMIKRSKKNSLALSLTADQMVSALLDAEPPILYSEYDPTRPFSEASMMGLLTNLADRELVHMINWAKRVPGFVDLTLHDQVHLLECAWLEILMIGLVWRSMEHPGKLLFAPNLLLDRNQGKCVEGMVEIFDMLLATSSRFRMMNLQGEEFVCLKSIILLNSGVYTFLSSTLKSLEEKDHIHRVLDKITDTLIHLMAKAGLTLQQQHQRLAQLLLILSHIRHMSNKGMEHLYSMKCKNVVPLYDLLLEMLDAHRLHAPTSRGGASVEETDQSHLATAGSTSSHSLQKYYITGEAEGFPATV
measuredAttribute: Degradation rate (%) of ERα in MCF-7 cells
Give just the numeric value; % need not be written.

Observe how each entry below is paired with its result.
{"molecule": "COC1(CN2CCC3(CC2)COc2c3ccc3c2CN(C2CCC(=O)NC2=O)C3=O)CCN(C(=O)C2CCN(c3ccc([C@@H]4c5ccc(O)cc5CC[C@@H]4c4ccccc4)cc3)CC2)CC1 (stereo partly shown)", "target": "ERα (Homo sapiens)", "readingUnit": "%", "readoutNumber": 59}
{"molecule": "O=C1CCC(N2Cc3ccc4c(c3C2=O)OCC2(CCN(C3CCC5(CC3)CCN(c3ccc([C@@H]6c7ccc(O)cc7CC[C@@H]6c6ccccc6)cc3)CC5)CC2)C4)C(=O)N1 (stereo partly shown)", "target": "ERα (Homo sapiens)", "readingUnit": "%", "readoutNumber": 44}
{"molecule": "C[C@@H]1Cc2c([nH]c3ccccc23)[C@@H](c2c(F)cc(N3CCC(C(=O)N4CCC(N5CCC6(CC5)COc5c6ccc6c5CN(C5CCC(=O)NC5=O)C6=O)CC4)CC3)cc2F)N1CC(F)F (stereo partly shown)", "target": "ERα (Homo sapiens)", "readingUnit": "%", "readoutNumber": 62}

From here, focus on the item given below.
Using the record for O=C1CCC(N2C(=O)c3cc4c(cc3C2=O)OC2(CCN(C3CCN(C5CN(c6ccc([C@@H]7c8ccc(O)cc8CC[C@@H]7c7ccccc7)cc6)C5)CC3)CC2)C4)C(=O)N1 (stereo partly shown) , report its Degradation rate (%) of ERα in MCF-7 cells. 11
